Molecular target: Snake venom metalloproteinase BaP1 (Bothrops asper, UniProt P83512)
Sequence (P83512 whole entry): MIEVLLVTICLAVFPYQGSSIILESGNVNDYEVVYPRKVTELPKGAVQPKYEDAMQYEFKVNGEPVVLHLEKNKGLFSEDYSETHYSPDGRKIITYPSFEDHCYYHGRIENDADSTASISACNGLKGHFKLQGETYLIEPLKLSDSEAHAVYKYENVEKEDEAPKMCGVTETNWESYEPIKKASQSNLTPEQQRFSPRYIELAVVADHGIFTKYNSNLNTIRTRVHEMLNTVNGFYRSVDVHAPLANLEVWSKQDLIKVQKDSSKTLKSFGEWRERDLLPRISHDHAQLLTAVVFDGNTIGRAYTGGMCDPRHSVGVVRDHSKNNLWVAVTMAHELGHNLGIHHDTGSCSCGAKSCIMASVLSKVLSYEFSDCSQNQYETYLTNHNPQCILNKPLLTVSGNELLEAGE
property: pKd
Answers are plain numbers, as −log10 of the molar value.

1. Cc1ccc(OCC(=O)N/N=C2\C(=O)NC(=O)N=C2O)cc1 :: 4.43

Please look at the following compound next.
Per the records, this compound ( CC(C)c1ccc(OCC(=O)N/N=C2\C(=O)NC(=O)N=C2O)cc1 ) has pKd equal to 4.47

Cited source: ChEMBL document CHEMBL4014297
